Biological target: Sodium- and chloride-dependent glycine transporter 1 (Rattus norvegicus)
Test: Inhibition of [3H]glycine uptake at rat glycine transporter 1 expressed in african green monkey COS7 cells
# IC50 annotations
Value expressed in nM; do not type the unit.

Previously resolved entries follow.
CC[C@H](C)[C@@H]1NC(=O)[C@H](Cc2ccccc2)NC(=O)[C@H]([C@H](C)[C@@H](C)O)NC(=O)[C@H](C(C)C)NC1=O    10.2
CC[C@H](C)[C@@H]1NC(=O)[C@H](Cc2ccccc2)NC(=O)[C@H]([C@H](C)[C@@H](C)O)NC(=O)[C@H]([C@@H](C)CC)NC1=O    3
CC[C@H](C)[C@@H]1NC(=O)[C@H](Cc2ccccc2)NC(=O)[C@H]([C@H](CS(=O)(=O)O)C(C)=O)NC(=O)[C@H]([C@@H](C)CC)NC1=O    20.4

Consider the record given below.
Give recorded IC50 with Sodium- and chloride-dependent glycine transporter 1 (Rattus norvegicus) for the following molecule: CC(C)[C@@H]1NC(=O)[C@H](Cc2ccccc2)NC(=O)[C@H]([C@H](C)[C@@H](C)O)NC(=O)[C@H](C(C)C)NC1=O
11.1

###

Target: Sodium- and chloride-dependent glycine transporter 2 (Rattus norvegicus)
Test: Inhibition of [3H]glycine uptake at rat glycine transporter 2 expressed in african green monkey COS7 cells
Residues, ends and D or L forms follow the SMILES beside them.
measure: pIC50
FYI, pIC50 means -log10 of a concentration in mol per litre.

Previously resolved entries follow.
N[C@@H](COC(c1cccc(F)c1)c1ccccc1OCc1ccccc1)C(=O)O (some centres not stated)    7.68
CC[C@H](C)[C@@H]1NC(=O)[C@H](C(C)C)NC(=O)[C@H](Cc2ccccc2)NC(=O)[C@H]([C@H](C)[C@@H](C)O)NC1=O    6.35
CC(C)[C@@H]1NC(=O)[C@H](Cc2ccccc2)NC(=O)[C@H]([C@H](C)[C@@H](C)O)NC(=O)[C@H](C(C)C)NC1=O    6.27
CC[C@H](C)[C@@H]1NC(=O)[C@H](Cc2ccccc2)NC(=O)[C@H]([C@H](CS(=O)(=O)O)C(C)=O)NC(=O)[C@H]([C@@H](C)CC)NC1=O    5.65
CC[C@H](C)[C@@H]1NC(=O)[C@H](Cc2ccccc2)NC(=O)[C@H]([C@H](C)[C@@H](C)O)NC(=O)[C@H](C(C)C)NC1=O    6.24
CC[C@H](C)[C@@H]1NC(=O)[C@H](Cc2ccccc2)NC(=O)[C@H]([C@H](C)[C@@H](C)O)NC(=O)[C@H]([C@@H](C)CC)NC1=O    6.56

Entry CC[C@H](C)[C@@H]1NC(=O)[C@H](Cc2ccccc2)NC(=O)[C@H]([C@@H](C)CC)NC(=O)[C@H]([C@@H](C)CC)NC1=O (cyclo(FIII)) : reported pIC50 = ?
6.65

The values you see were collected from BindingDB's records for doi:10.1016/j.bmcl.2008.10.104.
